As a worked illustration, we turn to pKi data collected for 5-hydroxytryptamine receptor 2A (Rattus norvegicus).
Give bare numbers, as −log10 of the molar value.

[
  {
    "CPD SMILES": "O=S1(=O)c2cccc3cccc(c23)N1CCCN1CCN(c2ccc(Br)cc2)CC1",
    "pKi": 8.15
  }
]

Consider the additional compound presented here.
### Prompt Please supply the value of reported pKi for the item O=S1(=O)c2cccc3cccc(c23)N1CCCN1CCN(c2ccccc2F)CC1
### Response 8.52

---

target: 5-hydroxytryptamine receptor 2A (Homo sapiens, UniProt P28223)
Sequence (P28223 whole entry): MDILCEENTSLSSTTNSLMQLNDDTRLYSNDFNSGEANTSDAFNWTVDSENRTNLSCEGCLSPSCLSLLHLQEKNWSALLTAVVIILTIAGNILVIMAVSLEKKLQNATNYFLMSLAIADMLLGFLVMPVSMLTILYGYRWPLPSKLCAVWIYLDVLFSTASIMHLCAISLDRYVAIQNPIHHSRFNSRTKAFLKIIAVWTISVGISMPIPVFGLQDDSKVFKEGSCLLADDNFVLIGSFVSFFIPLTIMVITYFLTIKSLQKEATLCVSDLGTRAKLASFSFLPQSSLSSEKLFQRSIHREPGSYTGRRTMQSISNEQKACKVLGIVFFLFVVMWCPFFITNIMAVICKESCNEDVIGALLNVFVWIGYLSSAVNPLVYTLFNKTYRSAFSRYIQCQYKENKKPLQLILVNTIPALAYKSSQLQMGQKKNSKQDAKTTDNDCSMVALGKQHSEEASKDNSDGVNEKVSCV
MEASURED ENDPOINT: Ki (nM)
One number for each entry, in nM.

Some molecules with recorded Ki:
[
  {
    "CPD SMILES": "O=C1c2cccc3cccc(c23)N1CCCCCCN1CCN(c2ccc(C(F)(F)F)cc2)CC1",
    "Ki (nM)": 4350
  },
  {
    "CPD SMILES": "O=S1(=O)c2cccc3cccc(c23)N1CCCCCCN1CCN(c2ccccc2F)CC1",
    "Ki (nM)": 376
  },
  {
    "CPD SMILES": "O=C1c2cccc3cccc(c23)N1CCCCCCN1CCN(c2cccc(Cl)c2)CC1",
    "Ki (nM)": 429
  },
  {
    "CPD SMILES": "O=C1c2cccc3cccc(c23)N1CCCCCCN1CCN(c2ccc(Cl)cc2)CC1",
    "Ki (nM)": 423
  },
  {
    "CPD SMILES": "O=S1(=O)c2cccc3cccc(c23)N1CCCCCCN1CCN(c2ccc(C(F)(F)F)cc2)CC1",
    "Ki (nM)": 1530
  },
  {
    "CPD SMILES": "O=C1c2cccc3cccc(c23)N1CCCCCCN1CCN(c2cccc(Cl)c2Cl)CC1",
    "Ki (nM)": 406
  },
  {
    "CPD SMILES": "O=S1(=O)c2cccc3cccc(c23)N1CCCCCCN1CCN(c2ccc(Cl)cc2)CC1",
    "Ki (nM)": 147
  },
  {
    "CPD SMILES": "O=C1c2cccc3cccc(c23)N1CCCCCCN1CCN(c2ccc(Br)cc2)CC1",
    "Ki (nM)": 1490
  }
]

Consider the additional molecule presented here.
### Prompt Please supply the value of reported Ki for the item O=C1c2cccc3cccc(c23)N1CCCCCCN1CCN(c2ccccc2F)CC1
### Response 524

---

target: 5-hydroxytryptamine receptor 7 (Homo sapiens, UniProt P34969); test: Binding affinity to 5HT7 (unknown origin)
Sequence (P34969 whole entry): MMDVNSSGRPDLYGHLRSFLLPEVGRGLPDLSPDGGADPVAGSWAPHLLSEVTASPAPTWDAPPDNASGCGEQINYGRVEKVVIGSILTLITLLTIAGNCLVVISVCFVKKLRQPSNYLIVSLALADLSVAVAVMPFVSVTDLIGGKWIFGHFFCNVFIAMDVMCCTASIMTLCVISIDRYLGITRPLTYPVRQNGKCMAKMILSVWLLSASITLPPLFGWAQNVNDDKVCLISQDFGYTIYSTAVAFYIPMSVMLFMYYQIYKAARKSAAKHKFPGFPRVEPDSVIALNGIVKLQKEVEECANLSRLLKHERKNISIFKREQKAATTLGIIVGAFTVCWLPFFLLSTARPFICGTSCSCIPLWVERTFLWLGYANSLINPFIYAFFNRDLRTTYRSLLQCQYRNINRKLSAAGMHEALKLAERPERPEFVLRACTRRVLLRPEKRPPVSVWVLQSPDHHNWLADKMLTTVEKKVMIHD
MEASURED ENDPOINT: Ki (nM)
Give bare numbers, in nM.

Some compounds with recorded Ki:
[
  {
    "CPD SMILES": "COc1ccccc1N1CCN(CCCCCCN2c3cccc4cccc(c34)S2(=O)=O)CC1",
    "MEASURED ENDPOINT": "Ki",
    "UNITS TEXT": "nM",
    "NUMERIC VALUE": 200
  },
  {
    "CPD SMILES": "COc1ccccc1N1CCN(CCCCCN2c3cccc4cccc(c34)S2(=O)=O)CC1",
    "MEASURED ENDPOINT": "Ki",
    "UNITS TEXT": "nM",
    "NUMERIC VALUE": 251
  },
  {
    "CPD SMILES": "O=S1(=O)c2cccc3cccc(c23)N1CCCCN1CCN(c2ccccc2)CC1",
    "MEASURED ENDPOINT": "Ki",
    "UNITS TEXT": "nM",
    "NUMERIC VALUE": 1000
  },
  {
    "CPD SMILES": "COc1ccccc1N1CCN(CCCCN2c3cccc4cccc(c34)S2(=O)=O)CC1",
    "MEASURED ENDPOINT": "Ki",
    "UNITS TEXT": "nM",
    "NUMERIC VALUE": 200
  }
]

### Prompt Please supply the value of reported Ki for the item O=S1(=O)c2cccc3cccc(c23)N1CCCCCN1CCN(c2ccccc2)CC1
### Response 200

---

target: 5-hydroxytryptamine receptor 6 (Homo sapiens)
Sequence (P50406 whole entry): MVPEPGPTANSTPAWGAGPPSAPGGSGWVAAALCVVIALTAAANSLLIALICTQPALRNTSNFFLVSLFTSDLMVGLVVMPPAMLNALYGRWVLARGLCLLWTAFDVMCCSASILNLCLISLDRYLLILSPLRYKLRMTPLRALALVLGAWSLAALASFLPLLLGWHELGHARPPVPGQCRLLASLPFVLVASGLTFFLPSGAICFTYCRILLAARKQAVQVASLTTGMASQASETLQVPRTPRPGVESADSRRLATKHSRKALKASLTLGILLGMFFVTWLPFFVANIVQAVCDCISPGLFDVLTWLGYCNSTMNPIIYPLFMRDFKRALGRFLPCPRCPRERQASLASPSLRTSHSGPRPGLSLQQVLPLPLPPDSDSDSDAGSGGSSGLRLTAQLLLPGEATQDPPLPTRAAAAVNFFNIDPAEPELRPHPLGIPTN
MEASURED ENDPOINT: Ki (µM)
Give bare numbers, in µM.

Some molecules with recorded Ki:
[
  {
    "CPD SMILES": "O=C1c2cccc3cccc(c23)N1CCCCCCN1CCN(c2cccc(C(F)(F)F)c2)CC1",
    "MEASURED ENDPOINT": "Ki",
    "UNITS TEXT": "µM",
    "NUMERIC VALUE": 2.21
  },
  {
    "CPD SMILES": "O=S1(=O)c2cccc3cccc(c23)N1CCCCCCN1CCN(c2cccc(Cl)c2Cl)CC1",
    "MEASURED ENDPOINT": "Ki",
    "UNITS TEXT": "µM",
    "NUMERIC VALUE": 0.237
  },
  {
    "CPD SMILES": "O=S1(=O)c2cccc3cccc(c23)N1CCCCCCN1CCN(c2ccc(Cl)c(Cl)c2)CC1",
    "MEASURED ENDPOINT": "Ki",
    "UNITS TEXT": "µM",
    "NUMERIC VALUE": 0.225
  }
]

Consider the additional molecule presented here.
### Prompt Please supply the value of reported Ki for the item O=S1(=O)c2cccc3cccc(c23)N1CCCCCCN1CCN(c2ccccc2F)CC1
### Response 0.71

---

target: 5-hydroxytryptamine receptor 7 (Homo sapiens); test: Displacement of [3H]5-CT from human 5HT7B receptor expressed in HEK293 cell membranes after 1 hr by microbeta plate reader method
Give measured Ki for each item. Keep answers brief.
Answers are plain numbers, in µM.

Some compounds with recorded Ki:
[
  {
    "CPD SMILES": "O=S1(=O)c2cccc3cccc(c23)N1CCCCCCN1CCN(c2ccccc2Cl)CC1",
    "Ki / µM": 0.286
  },
  {
    "CPD SMILES": "O=S1(=O)c2cccc3cccc(c23)N1CCCCCCN1CCN(c2ccc(Cl)cc2)CC1",
    "Ki / µM": 0.28
  },
  {
    "CPD SMILES": "O=S1(=O)c2cccc3cccc(c23)N1CCCCCCN1CCN(c2ccc(Cl)c(Cl)c2)CC1",
    "Ki / µM": 0.404
  },
  {
    "CPD SMILES": "O=C1c2cccc3cccc(c23)N1CCCCCCN1CCN(c2cccc(Cl)c2Cl)CC1",
    "Ki / µM": 5.09
  }
]

Could you report Ki for every entry in the following list?
1. O=C1c2cccc3cccc(c23)N1CCCCCCN1CCN(c2ccc(Cl)cc2)CC1
2. O=C1c2cccc3cccc(c23)N1CCCCCCN1CCN(c2ccccc2C(F)(F)F)CC1
3. O=S1(=O)c2cccc3cccc(c23)N1CCCCCCN1CCN(c2ccc(C(F)(F)F)cc2)CC1
4. O=S1(=O)c2cccc3cccc(c23)N1CCCCCCN1CCN(c2ccccc2F)CC1
5. O=S1(=O)c2cccc3cccc(c23)N1CCCCCCN1CCN(c2cccc(Cl)c2Cl)CC1
6. O=C1c2cccc3cccc(c23)N1CCCCCCN1CCN(c2ccc(Cl)c(Cl)c2)CC1
7. O=S1(=O)c2cccc3cccc(c23)N1CCCCCCN1CCN(c2cccc(Cl)c2)CC1

### Response
1: 0.124; 2: 17.8; 3: 6; 4: 0.203; 5: 0.14; 6: 0.166; 7: 0.432

Could you report Ki for every entry in the following list?
1. O=C1c2cccc3cccc(c23)N1CCCCCCN1CCN(c2ccc(Br)cc2)CC1
2. O=C1c2cccc3cccc(c23)N1CCCCCCN1CCN(c2cccc(Cl)c2)CC1
3. O=C1c2cccc3cccc(c23)N1CCCCCCN1CCN(c2ccc(C(F)(F)F)cc2)CC1
4. O=S1(=O)c2cccc3cccc(c23)N1CCCCCCN1CCN(c2cccc(C(F)(F)F)c2)CC1
5. O=C1c2cccc3cccc(c23)N1CCCCCCN1CCN(c2ccccc2Cl)CC1
6. O=C1c2cccc3cccc(c23)N1CCCCCCN1CCN(c2cccc(C(F)(F)F)c2)CC1

### Response
1: 1.83; 2: 0.053; 3: 49; 4: 0.167; 5: 0.336; 6: 0.291

### Prompt Please supply the value of reported Ki for the item O=C1c2cccc3cccc(c23)N1CCCCCCN1CCN(c2ccccc2F)CC1
### Response 0.42

---

biological target: 5-hydroxytryptamine receptor 1A (Homo sapiens, UniProt P08908); assay: Displacement of [3H]-8-OH-DPAT from human 5HT1AR expressed in HEK293 cell membranes after 1 hr by microbeta plate reader method
Sequence (P08908 whole entry): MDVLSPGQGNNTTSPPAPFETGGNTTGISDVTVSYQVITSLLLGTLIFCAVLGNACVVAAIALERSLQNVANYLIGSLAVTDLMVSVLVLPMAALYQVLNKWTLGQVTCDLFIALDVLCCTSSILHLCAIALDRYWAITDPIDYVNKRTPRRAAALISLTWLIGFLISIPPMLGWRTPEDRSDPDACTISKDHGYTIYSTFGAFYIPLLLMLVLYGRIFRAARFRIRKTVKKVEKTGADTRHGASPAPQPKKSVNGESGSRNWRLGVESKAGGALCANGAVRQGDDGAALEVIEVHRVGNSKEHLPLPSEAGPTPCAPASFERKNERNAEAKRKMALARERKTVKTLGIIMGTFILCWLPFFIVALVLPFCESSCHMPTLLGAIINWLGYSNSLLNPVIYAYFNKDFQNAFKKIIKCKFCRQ
MEASURED ENDPOINT: pKi
Answers are plain numbers, as −log10 of the molar value.

Could you report pKi for every entry in the following list?
1. O=S1(=O)c2cccc3cccc(c23)N1CCCCCCN1CCN(c2ccc(Cl)c(Cl)c2)CC1
2. O=C1c2cccc3cccc(c23)N1CCCCCCN1CCN(c2ccccc2F)CC1

### Response
7.10
7.19

Could you report pKi for every entry in the following list?
1. O=C1c2cccc3cccc(c23)N1CCCCCCN1CCN(c2ccccc2Cl)CC1
2. O=C1c2cccc3cccc(c23)N1CCCCCCN1CCN(c2ccc(C(F)(F)F)cc2)CC1
3. O=S1(=O)c2cccc3cccc(c23)N1CCCCCCN1CCN(c2ccc(Cl)cc2)CC1

### Response
[7.18, 6.27, 6.71]
